Target: L-lactate dehydrogenase (Plasmodium falciparum (isolate CDC / Honduras))
Test: PfLDH activity inhibition – cell lysate, 3D7 strain, counter-screen for P. falciparum growth inhibition project (AID 2304);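 also: 0% = vehicle and 100% = reference inhibitor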
Conditions: P. falciparum 3D7 crude extract, LDH APAD/NBT absorbance; at 2 µM; stronger effect = higher value
Please go through the items and note down their inhibition.
Dear colleague, please return just the value in %, with no unit written.

Entry CN(Cc1cccc(F)c1)C1CCN(c2cc(NC(=O)c3cccc(F)c3)ccn2)CC1 needs its inhibition filled in; supply it.
3

Name the recorded inhibition of the item NC(=O)c1cccc(C(=O)Nc2cccc(-c3ccc(-c4nc5ccccc5[nH]4)s3)c2)c1 in your answer.
1

Annotate the molecule C=C[C@]1(C)C[C@@H](OC(=O)CS[C@H]2CN3CC[C@H]2C3)[C@@]2(C)C3C(=O)CC[C@@]3(CC[C@H]2C)[C@@H](C)[C@@H]1O (stereo partly drawn) with its measured inhibition.
4

Output measured inhibition for this item: COc1ccc2nccc([C@@H](O)CN3CCC(NC(=O)c4cc5c(F)cc(F)cc5[nH]4)CC3)c2c1
-1

Item Cc1c(N=O)cc(C(C)(C)C)c(O)c1C(=O)Nc1ccc([N+](=O)[O-])cc1Cl : provide inhibition
1

State its inhibition for this molecule: Cc1ccc(-n2[nH]c(C)c(N=Nc3cccc(-c4cccc(NC(=O)OC(C)(C)C)c4)c3O)c2=O)cc1C
-4

Supply measured inhibition of N#Cc1ccc(-c2ccc(C(=O)Nc3ccc4c(c3)CCN(C3CCC3)CC4)nc2)cc1 in your reply.
0

Name the recorded inhibition of the molecule listed here: CCc1ccc(C2CCN(CCCCNC(=O)c3ccc(NC(=O)c4ccc(Cl)cc4)cc3)CC2)c(OCC(=O)OC)c1
6

---

Assign inhibition to each entry below.
Target: L-lactate dehydrogenase (Plasmodium falciparum (isolate CDC / Honduras)) (UniProt Q27743)
Sequence (Q27743 whole entry, looked up): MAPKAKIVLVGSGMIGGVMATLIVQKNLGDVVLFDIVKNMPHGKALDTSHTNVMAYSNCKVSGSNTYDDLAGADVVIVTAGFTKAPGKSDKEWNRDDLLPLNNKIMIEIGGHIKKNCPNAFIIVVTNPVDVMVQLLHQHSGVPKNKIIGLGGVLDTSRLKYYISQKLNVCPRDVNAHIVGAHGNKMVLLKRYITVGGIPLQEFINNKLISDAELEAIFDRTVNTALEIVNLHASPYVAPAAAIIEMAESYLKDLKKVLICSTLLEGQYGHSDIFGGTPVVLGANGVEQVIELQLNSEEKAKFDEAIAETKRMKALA
Experiment: PfLDH activity inhibition – cell lysate, 3D7 strain, counter-screen for P. falciparum growth inhibition project (AID 2304);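 also: 0% = vehicle and 100% = reference inhibitor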
Conditions: P. falciparum 3D7 crude extract, LDH APAD/NBT absorbance; at 2 µM; stronger effect = higher value
Quick reminder: number only, in %, skip the unit.

Jot down inhibition (L-lactate dehydrogenase (Plasmodium falciparum (isolate CDC / Honduras)) (UniProt Q27743)) of CCOc1ccc(OCCCON2C(N)=NC(N)=NC2(C)C)cc1 .
-9

Please tell me the measured inhibition for CC(O)C1CCCCN1C(=O)c1cccc(-c2cccc(-c3nc4ccc(F)cc4[nH]3)c2)c1 (stereo not given) ; system: L-lactate dehydrogenase (Plasmodium falciparum (isolate CDC / Honduras)) (UniProt Q27743).
-2

Name the recorded inhibition of O=C(NC1CCC(CCN2Cc3cccc(F)c3C2)CC1)c1cccc(-c2cccnc2)c1 (stereo not given) , assay system L-lactate dehydrogenase (Plasmodium falciparum (isolate CDC / Honduras)) (UniProt Q27743).
-2

State inhibition (L-lactate dehydrogenase (Plasmodium falciparum (isolate CDC / Honduras)) (UniProt Q27743)) of CCCCCCCCCCNCC(O)c1ccc(O)c(C(=O)OC)c1 (stereo not given) .
-7

Report value: inhibition, system: L-lactate dehydrogenase (Plasmodium falciparum (isolate CDC / Honduras)) (UniProt Q27743), compound: C=C(C)CSc1nc2c(c(=O)n1CCc1ccccc1)C1(CCCC1)Cc1ccccc1-2
-5

Return reported inhibition for target or system L-lactate dehydrogenase (Plasmodium falciparum (isolate CDC / Honduras)) (UniProt Q27743), item COc1cc(OC)cc(-c2nc3c(C#N)c(OCCN(C)C)ccc3[nH]2)c1 .
-3

Send back L-lactate dehydrogenase (Plasmodium falciparum (isolate CDC / Honduras)) (UniProt Q27743) inhibition of COc1cccc(-c2[nH]c3ccccc3c2CN2CCC(c3c(C)cccc3C)CC2)c1 only.
3

Please indicate recorded inhibition of Cc1ccccc1C1CCN(C2CCC(NC(=O)/C=C/c3cccc(C(F)(F)F)c3)CC2)CC1 (stereo not given) measured with L-lactate dehydrogenase (Plasmodium falciparum (isolate CDC / Honduras)) (UniProt Q27743).
-4

Supply inhibition measured with L-lactate dehydrogenase (Plasmodium falciparum (isolate CDC / Honduras)) (UniProt Q27743) for CCc1sc(-c2cc(Cl)ccc2OC)nc1C(=O)NCCN1CCCCC1 .
2

Give inhibition only, for C[C@H](Cc1ccc(OCCCCOc2ccc(C[C@@H](C)NC[C@H](O)c3cccc(Cl)c3)cc2)cc1)NC[C@H](O)c1cccc(Cl)c1 , using L-lactate dehydrogenase (Plasmodium falciparum (isolate CDC / Honduras)) (UniProt Q27743) data.
7

Look up and report inhibition, with L-lactate dehydrogenase (Plasmodium falciparum (isolate CDC / Honduras)) (UniProt Q27743) as system, for CCN1CCC(NCc2ccc(-c3ccc(Cl)s3)cc2)CC1
-4

For L-lactate dehydrogenase (Plasmodium falciparum (isolate CDC / Honduras)) (UniProt Q27743), give inhibition of the listed compound: CCCCCCN(CCCCCC)CC(O)c1cc(-c2ccc(Cl)cc2)nc2c(C)cc(C)cc12 (stereo not given)
-2

Give measured inhibition for c1nc2nc3c(c(Nc4ccc5c(c4)CCC5)n2n1)CCC3 (L-lactate dehydrogenase (Plasmodium falciparum (isolate CDC / Honduras)) (UniProt Q27743)).
-5

Report value only: inhibition, L-lactate dehydrogenase (Plasmodium falciparum (isolate CDC / Honduras)) (UniProt Q27743), CC(C)[C@H](NC(=O)c1ccc(O)c(-c2ccc(Cl)c(Cl)c2)c1)C(=O)NCCN(C)C
-3

Name the recorded inhibition of CCOc1ccccc1N1CCN(CCCNC(=O)/C(=C/C=C/c2cc3cc(Cl)c(Cl)cc3[nH]2)OC)CC1 , assay system L-lactate dehydrogenase (Plasmodium falciparum (isolate CDC / Honduras)) (UniProt Q27743).
-4

Write down measured inhibition (L-lactate dehydrogenase (Plasmodium falciparum (isolate CDC / Honduras)) (UniProt Q27743)) for this compound. NCCCNc1ccc(-c2ccc(NC(=O)Nc3cc(C(F)(F)F)ccc3F)cc2)cn1
3

Write down measured inhibition (L-lactate dehydrogenase (Plasmodium falciparum (isolate CDC / Honduras)) (UniProt Q27743)) for this compound. CCCCCNc1nc2nc(N)nc(N)c2nc1-c1ccccc1
-2

Give the observed inhibition of O=C(NCC1CCC(C(=O)O)CC1)c1ccc(/C=C/C(=O)N2CCc3ccccc3C2c2ccc3c(c2)OCO3)cc1 (stereo not given) for L-lactate dehydrogenase (Plasmodium falciparum (isolate CDC / Honduras)) (UniProt Q27743).
2

Fill in inhibition for COc1ccc(S(=O)(=O)Nc2cc(Br)cc3c2OCCC3)cc1N1CCN(C(=O)C(Cl)(Cl)Cl)CC1 tested with L-lactate dehydrogenase (Plasmodium falciparum (isolate CDC / Honduras)) (UniProt Q27743).
-2

Please tell me the measured inhibition for Cc1cc(=O)c(-c2ccc(OCc3ccc(OC(F)(F)F)cc3)cc2)c(C)[nH]1 ; system: L-lactate dehydrogenase (Plasmodium falciparum (isolate CDC / Honduras)) (UniProt Q27743).
3

Hey, just so you know, these numbers are from PubChem BioAssay.
